Provenance of the data: ChEMBL document CHEMBL4811266

# protocol.notes: Stability of compound in human plasma assessed as parent compound remaining incubated for 24 hrs by LC-MS/MS analysis
# Assay type: ADME, cell-free
# recorded.conditions: read-out: Stabilty
Numbered stars: 1 amine (or outer) side, 2 acyl side, 3 side chain; on linkers, the order of the positions; unused ones are H or OH. Square brackets hold non-standard residues; d marks the D form. Peptide text beside a SMILES is read from it. X1 = O=C([C@@H]1Cc2cc(O)ccc2CN1[*:1])[*:2]; Tic(7-OH) = O=C(O)[C@@H]1Cc2ccc(O)cc2CN1
Item-by-item account of remaining at 24 h

# example entries with known answers
Respond only with remaining at 24 h recorded for CC[C@H](C)[C@H](NC(=O)[C@H](Cc1ccc(O)cc1)NC(=O)[C@@H](NC(=O)[C@@H](N)CCCNC(=N)N)C(C)C)C(=O)N1Cc2ccc(O)cc2C[C@H]1C(=O)N1CCC[C@H]1C(=O)N[C@@H](Cc1ccccc1)C(=O)O (H-RVYI[X1]PF-OH)
> 50%

Respond only with remaining at 24 h recorded for CC[C@H](C)[C@H](NC(=O)[C@H](Cc1ccc(O)cc1)NC(=O)[C@@H](NC(=O)[C@H](CCCNC(=N)N)NC(=O)[C@@H](N)CC(=O)O)C(C)C)C(=O)N1Cc2ccc(O)cc2C[C@H]1C(=O)N1CCC[C@H]1C(=O)N[C@@H](Cc1ccccc1)C(=O)O (H-DRVYI[X1]PF-OH)
> 50%

Respond only with remaining at 24 h recorded for CC[C@H](C)[C@H](NC(=O)[C@H](Cc1ccc(O)cc1)NC(=O)[C@@H](NC(=O)[C@H](CCCNC(=N)N)NC(=O)[C@@H](N)CC(=O)O)C(C)C)C(=O)N[C@H]1Cc2c([nH]c3ccccc23)CN(CC(=O)N[C@@H](Cc2ccccc2)C(=O)O)C1=O
> 50%

# evaluate next
Respond only with remaining at 24 h recorded for CC[C@H](C)[C@H](NC(=O)[C@H](Cc1ccc(O)cc1)NC(=O)[C@@H](NC(=O)[C@@H](N)CCCNC(=N)N)C(C)C)C(=O)N1Cc2cc(O)ccc2C[C@H]1C(=O)N1CCC[C@H]1C(=O)N[C@@H](Cc1ccccc1)C(=O)O (H-RVYI[Tic(7-OH)]PF-OH)
> 70%
